# maps each entry to its GI50
# Test system: MOLT-4
# Procedure text: NCI tumour cell line growth inhibition, 48 h
Calls of active or inactive are those of the source. No stated cut-off is given here; in the data, active = GI50 up to about 1.1 µM and inactive = higher.
Outcome measure: GI50

[[record]]
compound = "c1ccc(C2SCc3nc4ccccc4n32)cc1 (configuration not stated)"
meas_value = "28.2 µM (inactive)"

[[record]]
compound = "COC(OC)(c1ccccc1)C(I)I"
meas_value = "2.38 µM (inactive)"

[[record]]
compound = "CC1=NN(c2cccc(Cl)c2)C2(C1=Cc1cccs1)C(Cl)C(=O)N2c1nc2ccccc2s1 (configuration not stated)"
meas_value = "22.3 µM (inactive)"

[[record]]
compound = "O=[N+]([O-])c1cn[n+]([O-])c2ccccc12"
meas_value = "1.71 µM (inactive)"

[[record]]
compound = "C=CCC1C(=O)C(C(=O)OC)N2CCc3c([nH]c4ccccc34)C12 (configuration not stated)"
meas_value = "64.9 µM (inactive)"

[[record]]
compound = "CC(C)(NC1=NCCO1)c1ccccc1"
meas_value = "> 100 µM (inactive)"

[[record]]
compound = "COc1ccc(CN(Cc2ccc(OC)cc2)C(=O)CC2(O)CCc3ccccc3C2)cc1 (configuration not stated)"
meas_value = "7.89 µM (inactive)"

[[record]]
compound = "CCOc1cc(C(c2c(O)c3ccccc3oc2=O)c2c(O)c3ccccc3oc2=O)ccc1OC"
meas_value = "35.9 µM (inactive)"

[[record]]
compound = "CCC(C)[C@@H](NCc1ccccc1)[C@H](OCc1ccccc1)[C@@H]1COC(C)(C)O1 (some centres not stated)"
meas_value = "25.5 µM (inactive)"

[[record]]
compound = "Cc1c(C(=O)N2CCN(c3ccc([N+](=O)[O-])cc3)CC2)[n+]([O-])c2cc(Cl)c(Cl)cc2[n+]1[O-]"
meas_value = "72.8 µM (inactive)"

[[record]]
compound = "c1ccc(/N=C(\\N2CCCC2)N(CCN2CCCC2)c2ccccc2)cc1"
meas_value = "3.98 µM (inactive)"

[[record]]
compound = "O=C1COc2cc(NC(=S)Nc3ccccc3)ccc2N1"
meas_value = "> 100 µM (inactive)"

[[record]]
compound = "CC(=O)O[C@@H]1C[C@]2(C(=O)c3ccccc3)C(=O)C(=O)S[C@]12c1ccccc1"
meas_value = "28.4 µM (inactive)"

[[record]]
compound = "COc1ccc(/C=C/[N+](=O)[O-])cc1"
meas_value = "2.8 µM (inactive)"

[[record]]
compound = "Nc1ccc([C@H]2C(=O)N[C@H]3CCC[C@H]32)cc1"
meas_value = "> 100 µM (inactive)"

[[record]]
compound = "O=C(CC/C(CC(=O)c1ccc(Cl)cc1)=N/O)Nc1ccc(Cl)c(Cl)c1"
meas_value = "53.2 µM (inactive)"

[[record]]
compound = "CN(NC(=O)c1cccs1)C1=NCCN1"
meas_value = "> 100 µM (inactive)"

[[record]]
compound = "C#CC[N+](CCO)(CCO)CCCCCCCCCCCCCCCCCC"
meas_value = "2.91 µM (inactive)"

[[record]]
compound = "COC(=O)[C@H](C)[C@@H]1CC[C@](C)(CCC2=C(C)CCCC2(C)C)OO1"
meas_value = "> 25 µM (inactive)"

[[record]]
compound = "CCOc1ccc2c(c1)[n+]([O-])c(-c1ccc([N+](=O)[O-])cc1)c(N)[n+]2[O-]"
meas_value = "52.2 µM (inactive)"

[[record]]
compound = "Cn1c(=O)c2nc(N3CCCCC3)cnc2n(C)c1=O"
meas_value = "> 100 µM (inactive)"

[[record]]
compound = "C/C=C(\\C)C(=O)OC1C2C(C)C(=O)OC2C(O)C(C)C2C=CC(=O)C21C (configuration not stated)"
meas_value = "8.47 µM (inactive)"


###

# maps each entry to its GI50
# System: OVCAR-5
# Procedure text: NCI tumour cell line growth inhibition, 48 h
Active and inactive are the calls of the source. Rule as the data show it: active = GI50 up to about 1.1 µM and inactive = higher.
Outcome measure: GI50

[[record]]
molecule = "CC(=O)O[C@@H]1C[C@]2(C(=O)c3ccccc3)C(=O)C(=O)S[C@]12c1ccccc1"
meas_value = "> 100 µM (inactive)"

[[record]]
molecule = "COc1ccc(-n2nnnc2C2(Nc3ccccc3)CCN(Cc3ccccc3)CC2)cc1"
meas_value = "15.7 µM (inactive)"

[[record]]
molecule = "CN(Cc1cc(Cl)cc(Cl)c1)CC(C(=O)c1ccccc1)c1ccccc1 (stereo unspecified)"
meas_value = "6.21 µM (inactive)"

[[record]]
molecule = "O=C1C=C(N2CCCC2)C=C(N2CCCC2)C1"
meas_value = "> 100 µM (inactive)"

[[record]]
molecule = "COc1cccc2[nH]c(-c3ccccn3)nc12"
meas_value = "> 100 µM (inactive)"

[[record]]
molecule = "O=c1cc(NNc2ccccc2F)[nH]c(=O)[nH]1"
meas_value = "19.5 µM (inactive)"


###

# Test system: SN12C
# Procedure text: NCI tumour cell line growth inhibition, 48 h
Activity calls are given as the source filed them. Rule as the data show it: active = GI50 up to about 1.1 µM and inactive = higher.
Possible outcomes: Yes (active), No (inactive)

[[record]]
molecule = "O=C1CCCC2=C1CC1=C(CCCC1=O)N2c1ccc(Cl)cc1"
target_under_test = "SN12C"
classification = "No"

[[record]]
molecule = "c1ccc(CN2CCC(CNc3ncnc4ccccc34)C2)cc1 (stereo unspecified)"
target_under_test = "SN12C"
classification = "No"

[[record]]
molecule = "N/C(=N\\c1ccc(Cl)cc1)NS(=O)(=O)c1cc(Cl)c(Oc2ccc([N+](=O)[O-])cc2Cl)c(Cl)c1"
target_under_test = "SN12C"
classification = "No"

[[record]]
molecule = "C/C=C1\\NC(=O)[C@H](Cc2ccccc2)NC(=O)[C@@H](C(C)C)NC(=O)[C@@H]([C@@H](C)CC)NC(=O)[C@H](NC(=O)[C@H](NC(=O)[C@H](CCCN)NC(=O)[C@H]2CCCN2C(=O)[C@H](NC(=O)[C@@H](NC(=O)[C@@H](NC(=O)[C@H](NC(=O)CCCC(C)C)C(C)C)[C@@H](C)O)C(C)C)C(C)C)[C@@H](C)CC)[C@@H](C)OC(=O)[C@H](C(C)C)NC1=O"
target_under_test = "SN12C"
classification = "No"

[[record]]
molecule = "CC(=O)Oc1c(-c2ccccc2)[nH]c2cc([N+](=O)[O-])c(/C(Cl)=C/c3ccccc3)cc12"
target_under_test = "SN12C"
classification = "No"

[[record]]
molecule = "CC(=O)Oc1cc(OC(C)=O)c2c(c1)OC(c1ccc(OC(C)=O)c(OC(C)=O)c1)CC2=O (stereo unspecified)"
target_under_test = "SN12C"
classification = "Yes"


###

# Tested on: UO-31
# Procedure text: NCI tumour cell line growth inhibition, 48 h
Activity calls are given as the source filed them. Rule as the data show it: active = GI50 up to about 1.1 µM and inactive = higher.
Possible outcomes: 1 (yes) (active), 0 (no) (inactive)

[[record]]
compound = "C=CCC1C(=O)C(C(=O)OC)N2CCc3c([nH]c4ccccc34)C12 (stereo not given)"
classification = "0 (no)"

[[record]]
compound = "CC(=O)Oc1c(-c2ccccc2)[nH]c2cc([N+](=O)[O-])c(/C(Cl)=C/c3ccccc3)cc12"
classification = "0 (no)"

[[record]]
compound = "O=C1OC(c2ccccc2)(c2ccccc2)CC1CN1CCOCC1 (stereo not given)"
classification = "0 (no)"

[[record]]
compound = "COc1ccc(/C=C/[N+](=O)[O-])cc1"
classification = "0 (no)"

[[record]]
compound = "COc1cc2ccc(/C(C)=N/OC(C)=O)cc2cc1OC"
classification = "0 (no)"

[[record]]
compound = "CC[C@@]1(O)C(=O)OCc2c1cc1n(c2=O)Cc2c-1nc1ccccc1c2/C=N/NC(=O)c1ccc(N)cc1"
classification = "1 (yes)"

[[record]]
compound = "CC(C)CNC1=NCC(C)S1 (stereo not given)"
classification = "0 (no)"

[[record]]
compound = "CC(=O)Oc1cc(OC(C)=O)c2c(c1)OC(c1ccc(OC(C)=O)c(OC(C)=O)c1)CC2=O (stereo not given)"
classification = "0 (no)"

[[record]]
compound = "C/C=C(\\C)C(=O)OC1C2C(C)C(=O)OC2C(O)C(C)C2C=CC(=O)C21C (stereo not given)"
classification = "0 (no)"

[[record]]
compound = "COc1ccc(C(c2c(O)c3ccccc3n(C)c2=O)c2c(O)c3ccccc3n(C)c2=O)cc1"
classification = "0 (no)"

[[record]]
compound = "O=C1COc2cc(NC(=S)Nc3ccccc3)ccc2N1"
classification = "0 (no)"

[[record]]
compound = "[O-][N+]1=C(c2ccccc2)/C(=C2/C(c3ccccc3)=[N+]([O-])c3ccccc32)Cc2ccccc21"
classification = "0 (no)"

[[record]]
compound = "N#CCCN(CCC#N)c1ccc(/C=C(/NC(=O)c2cc([N+](=O)[O-])ccc2Cl)C(=O)NN)cc1"
classification = "0 (no)"

[[record]]
compound = "CC(=O)OCCC[C@@H]1C(=C(C)C)CCC2[C@@]1(C)CC[C@@]1(C)C[C@](C)(CCC=C(C)C)CC[C@]21C (stereo not given in full)"
classification = "0 (no)"

[[record]]
compound = "C(=N\\c1ccc(-c2nc3ccccc3s2)cc1)/c1ccc[nH]1"
classification = "0 (no)"

[[record]]
compound = "O=C(O)c1nc2ccccc2nc1Nc1ccc(F)cc1"
classification = "0 (no)"

[[record]]
compound = "Cn1c(-c2c(C3=CC(=O)N(c4ccccc4)C3=O)c3ccccc3n2C)cc2ccccc21"
classification = "0 (no)"

[[record]]
compound = "CC1(C)OC(=O)N(c2ccccc2)C12C=Cc1cc([N+](=O)[O-])ccc1O2 (stereo not given)"
classification = "0 (no)"

[[record]]
compound = "Cc1ncc(-c2nnnn2-c2ccccc2)c(C(=O)O)n1"
classification = "0 (no)"

[[record]]
compound = "CC1=NN(C(=O)CSc2nnc(SCC(=O)N3N=C(C)CC3(O)c3ccccc3)s2)C(O)(c2ccccc2)C1 (stereo not given)"
classification = "0 (no)"

